# MEASURED TARGET: cytochrome P450 1A2 (Homo sapiens, UniProt P05177)
# Sequence (P05177 2-516): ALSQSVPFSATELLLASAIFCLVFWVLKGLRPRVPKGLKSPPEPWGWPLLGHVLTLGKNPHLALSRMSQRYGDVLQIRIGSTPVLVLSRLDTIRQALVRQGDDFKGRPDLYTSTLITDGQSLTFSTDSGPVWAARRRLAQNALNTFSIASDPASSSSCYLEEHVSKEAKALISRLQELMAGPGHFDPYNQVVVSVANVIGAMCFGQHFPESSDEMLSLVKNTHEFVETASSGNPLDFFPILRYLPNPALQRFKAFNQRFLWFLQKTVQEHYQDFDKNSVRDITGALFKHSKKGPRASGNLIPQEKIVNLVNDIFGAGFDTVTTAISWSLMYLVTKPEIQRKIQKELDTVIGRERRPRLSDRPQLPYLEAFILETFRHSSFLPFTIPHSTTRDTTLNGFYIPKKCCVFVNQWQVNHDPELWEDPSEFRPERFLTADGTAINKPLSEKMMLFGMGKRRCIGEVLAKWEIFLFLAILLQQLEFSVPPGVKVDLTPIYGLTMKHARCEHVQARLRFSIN
# METHOD DESCRIPTION: biochemical
# STATED CONDITIONS: substrate phenacetin; liver microsomes
pIC50: −log10 of the molar value.
REPORTED METRIC: pIC50

[[record]]
molecule = "[C-]#[N+]C(c1ccc(F)cc1Cl)S(=O)(=O)c1ccc(C)cc1 (stereo not shown) [I16]"
quantitative_readout = 7.22


---

# MEASURED TARGET: cytochrome P450 2D6 (Homo sapiens, UniProt P10635)
# Sequence (P10635 whole entry): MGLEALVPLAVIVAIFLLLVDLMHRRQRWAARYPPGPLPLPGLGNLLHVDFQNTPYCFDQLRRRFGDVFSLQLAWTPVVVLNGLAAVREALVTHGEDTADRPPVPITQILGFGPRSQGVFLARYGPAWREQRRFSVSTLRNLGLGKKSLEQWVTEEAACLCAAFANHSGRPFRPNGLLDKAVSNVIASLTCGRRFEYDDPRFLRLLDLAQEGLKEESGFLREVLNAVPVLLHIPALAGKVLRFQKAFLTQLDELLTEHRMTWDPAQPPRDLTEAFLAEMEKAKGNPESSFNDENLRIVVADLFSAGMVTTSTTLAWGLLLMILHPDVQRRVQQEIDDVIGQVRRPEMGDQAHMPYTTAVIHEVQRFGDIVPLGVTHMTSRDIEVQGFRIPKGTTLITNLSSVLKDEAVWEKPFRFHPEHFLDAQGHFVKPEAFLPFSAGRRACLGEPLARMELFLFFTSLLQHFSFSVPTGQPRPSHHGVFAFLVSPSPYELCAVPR
# METHOD DESCRIPTION: biochemical
# STATED CONDITIONS: substrate dextromethorphan; liver microsomes
REPORTED METRIC: IC50 (nM)

[[record]]
compound = "[C-]#[N+]C(c1ccc(F)cc1Cl)S(=O)(=O)c1ccc(C)cc1 (stereo not shown) [I16]"
quantitative_readout = 59.3

